Below, Ki values reported for Alpha-2C adrenergic receptor (Rattus norvegicus, UniProt P22086) across several publications.
Checkbox rule: Ki lower than 400 nM = TRUE; Ki not lower than 400 nM = FALSE.

The examples below pair each entry with its known result.
# Compound, Cat
rows = [
    ("N=C(N)NC(=O)c1nc(Cl)c(N2CCCCCC2)nc1N", "FALSE"),
    ("Cc1ccccc1C1CNCCc2c1cc(O)c(O)c2Br (configuration not stated)", "TRUE"),
    ("Fc1ccc(N2CCN(CCC3OCCc4ccccc43)CC2)cc1 (configuration not stated)", "TRUE"),
]

Is the reported Ki for Cc1ccccc1C1CN(C)CCc2c1cc(O)c(O)c2Cl (configuration not stated) strictly below 400 nM? TRUE

Lab note: confirm whether the reported Ki for this compound is below 400 nM, equality not counting. compound: CCN1CCCC1CNC(=O)c1cc(S(=O)(=O)CC)c(N)cc1OC (configuration not stated) FALSE

Lab note: Ki threshold 400 nM. Does this compound come in strictly under it? O=C(c1ccc(F)cc1)C1CCN(CCn2c(=O)[nH]c3ccccc3c2=O)CC1 TRUE

Is the reported Ki for Nc1nc2c(ncn2[C@@H]2O[C@H](COP(=O)(O)OP(=O)(O)NP(=O)(O)O)[C@@H](O)[C@H]2O)c(=O)[nH]1 strictly below 400 nM? TRUE

Report whether reported Ki is lower than 400 nM (strictly) for C=CCN1CCc2c(cc(O)c(O)c2Br)C(c2ccccc2C)C1 (configuration not stated) FALSE

Say whether its Ki is strictly beneath 400 nM. Entry: CN1CCc2cc(Cl)c(O)cc2C(c2ccccc2)C1 (configuration not stated) TRUE

API: query returns whether the compound falls strictly under 400 nM in Ki. Query: CC(CN(C)C)CN1c2ccccc2Sc2ccc(C#N)cc21 (configuration not stated) FALSE

Please state whether Ki is below 400 nM for CN1Cc2c(N)cccc2[C@H](c2ccccc2)C1 FALSE

# check: Ki < 400 nM for C=CCN1CCc2c(cc(O)c(O)c2Br)C(c2ccc(C)cc2)C1 (configuration not stated) FALSE

is_below(Ki, 400 nM) for Cc1cc(NC(=O)Nc2ccc3c(ccn3C)c2)sn1 ? FALSE

====

Literature-derived pKi for the protein given by its sequence follows.
Protein target, amino acids: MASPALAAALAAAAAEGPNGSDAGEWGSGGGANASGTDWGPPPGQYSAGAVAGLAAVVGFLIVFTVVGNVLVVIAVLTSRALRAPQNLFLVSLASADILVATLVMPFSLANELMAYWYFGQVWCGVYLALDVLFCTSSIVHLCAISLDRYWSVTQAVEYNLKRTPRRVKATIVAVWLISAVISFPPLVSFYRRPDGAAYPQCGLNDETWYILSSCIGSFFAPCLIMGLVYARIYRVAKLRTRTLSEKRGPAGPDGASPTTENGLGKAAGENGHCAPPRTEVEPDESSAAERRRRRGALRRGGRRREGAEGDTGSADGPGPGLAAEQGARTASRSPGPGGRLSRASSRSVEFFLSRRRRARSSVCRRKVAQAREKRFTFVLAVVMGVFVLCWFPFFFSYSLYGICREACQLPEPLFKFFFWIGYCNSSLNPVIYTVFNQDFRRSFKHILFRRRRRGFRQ
Scale: pKi equals -log10([C]), with [C] in mol/L.

Check out these entries, answers already filled in.
# Compound, Property, Value
records = [
    ("CN(C)CCON=C(C=Cc1ccc(O)cc1)c1ccccc1F", "pKi", 6.00),
    ("c1cnc(N2CCN(Cc3ccc4c(c3)OCO4)CC2)nc1", "pKi", 6.36),
    ("NC(=O)c1ccc(F)c2c1CC(N(C1CCC1)C1CCC1)CO2 (centres undefined)", "pKi", 6.00),
    ("Cc1nc2ccccn2c(=O)c1CCN1CCC(=C(c2ccc(F)cc2)c2ccc(F)cc2)CC1", "pKi", 6.55),
    ("Cc1cccc([C@H]2CN(C)CCc3c2cc(O)c(O)c3Cl)c1", "pKi", 6.20),
]

Which value of pKi has been reported for Oc1cc2c(c(Br)c1O)CCNC[C@H]2c1cccc(C(F)(F)F)c1 in the records? 6.11

Which pKi value belongs to Cc1cccc([C@@H]2CN(C)CCc3c2cc(O)c(O)c3Br)c1 ? 6.34

// returns reported pKi for input NC(=O)C1(N2CCCCC2)CCN(CCCC(=O)c2ccc(F)cc2)CC1 6.17

====

Recorded pKi for compounds tested on the protein given by its sequence, drawn from a number of studies.
Target chain: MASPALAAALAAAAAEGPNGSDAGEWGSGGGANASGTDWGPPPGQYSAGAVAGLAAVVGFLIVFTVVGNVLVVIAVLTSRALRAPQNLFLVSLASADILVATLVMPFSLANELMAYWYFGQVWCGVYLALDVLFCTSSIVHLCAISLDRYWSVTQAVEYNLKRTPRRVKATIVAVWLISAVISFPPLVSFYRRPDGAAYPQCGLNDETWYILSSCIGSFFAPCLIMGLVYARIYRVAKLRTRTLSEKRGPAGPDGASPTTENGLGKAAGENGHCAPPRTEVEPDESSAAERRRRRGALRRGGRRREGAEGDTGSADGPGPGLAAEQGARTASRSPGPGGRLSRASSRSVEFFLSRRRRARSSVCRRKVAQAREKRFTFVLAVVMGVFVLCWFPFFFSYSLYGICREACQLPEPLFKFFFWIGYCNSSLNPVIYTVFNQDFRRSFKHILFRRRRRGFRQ
Recall that pKi is obtained by taking minus log10 of the concentration measured in molar.

See these solved cases before continuing.
# Compound, Tested On, pKi
data = [
    ("C=CCN1CCc2c(cc(O)c(O)c2Cl)C(c2cccc(C)c2)C1 (centres undefined)", "the protein given by its sequence", 6.06),
    ("CN1CCc2c(cc(O)c(O)c2Br)[C@H](c2cccc(C(F)(F)F)c2)C1", "the protein given by its sequence", 6.44),
    ("Cc1ccccc1C1CN(C)CCc2c1cc(O)c(O)c2Br (centres undefined)", "the protein given by its sequence", 6.73),
    ("Cc1ccc(C2CN(C)CCc3c2cc(O)c(O)c3Cl)cc1 (centres undefined)", "the protein given by its sequence", 6.60),
    ("CNCCCN1c2ccccc2CCc2ccccc21", "the protein given by its sequence", 5.04),
    ("Oc1cc2c(c(Cl)c1O)CCNCC2c1ccccc1 (centres undefined)", "the protein given by its sequence", 6.29),
]

Query: pKi; subject: COc1cccc(OC)c1OCCNCC1CSc2ccccc2O1 (centres undefined) 5.12

Would you mind telling me what pKi value was observed for CC(C)(C)[C@]1(O)CCN2C[C@H]3c4ccccc4CCc4cccc(c43)[C@@H]2C1 ? 6.80
